Molecular target: purified recombinant HCMV polymerase (UL54) (Human cytomegalovirus)
Construct: made in house; host or cells: Sf21 insect cells (baculovirus)
Sequence (P08546 whole entry): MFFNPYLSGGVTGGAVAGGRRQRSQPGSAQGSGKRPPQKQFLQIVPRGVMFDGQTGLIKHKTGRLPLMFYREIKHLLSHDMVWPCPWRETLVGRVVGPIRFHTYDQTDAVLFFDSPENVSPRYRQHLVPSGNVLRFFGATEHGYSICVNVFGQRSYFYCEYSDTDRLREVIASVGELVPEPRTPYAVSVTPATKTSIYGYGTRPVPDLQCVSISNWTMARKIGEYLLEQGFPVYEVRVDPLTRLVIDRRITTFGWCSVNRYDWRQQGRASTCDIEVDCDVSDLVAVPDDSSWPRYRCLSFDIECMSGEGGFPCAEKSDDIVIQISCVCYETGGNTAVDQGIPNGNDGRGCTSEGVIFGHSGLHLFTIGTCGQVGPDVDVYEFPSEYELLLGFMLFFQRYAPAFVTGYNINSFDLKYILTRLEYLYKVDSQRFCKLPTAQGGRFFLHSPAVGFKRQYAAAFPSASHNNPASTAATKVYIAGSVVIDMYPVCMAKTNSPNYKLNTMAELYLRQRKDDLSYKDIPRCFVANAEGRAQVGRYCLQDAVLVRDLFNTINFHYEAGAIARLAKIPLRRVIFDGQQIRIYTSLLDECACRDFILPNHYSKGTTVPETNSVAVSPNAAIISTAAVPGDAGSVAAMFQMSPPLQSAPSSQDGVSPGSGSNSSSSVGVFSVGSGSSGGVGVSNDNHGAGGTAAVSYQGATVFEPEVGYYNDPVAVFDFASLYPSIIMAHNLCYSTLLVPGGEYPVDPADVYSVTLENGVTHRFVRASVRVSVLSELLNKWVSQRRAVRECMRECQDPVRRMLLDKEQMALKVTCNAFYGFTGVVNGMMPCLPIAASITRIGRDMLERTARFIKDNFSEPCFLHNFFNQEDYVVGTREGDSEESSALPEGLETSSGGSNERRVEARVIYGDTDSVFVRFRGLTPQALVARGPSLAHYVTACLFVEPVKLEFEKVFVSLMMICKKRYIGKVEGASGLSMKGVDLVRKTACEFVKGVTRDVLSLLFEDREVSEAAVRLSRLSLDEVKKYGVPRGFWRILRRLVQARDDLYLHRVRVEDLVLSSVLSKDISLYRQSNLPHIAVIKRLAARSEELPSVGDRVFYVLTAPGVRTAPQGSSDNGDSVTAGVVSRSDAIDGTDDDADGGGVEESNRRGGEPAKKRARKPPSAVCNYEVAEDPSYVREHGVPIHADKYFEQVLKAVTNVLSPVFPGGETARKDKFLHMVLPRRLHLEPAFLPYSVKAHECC
Experiment: HCMV Polymerase LANCE TR-FRET Assay
Type: biochemical
Conditions: 2 nM GST-UL54, 37° C. for 30 min, 5% DMSO; read-out: Example 34 IC50
measuredAttribute: IC50 (nM)

a: Cn1c(N2CCOCC2)nc2cnc3c(cc(C(=O)NCc4ccc(Cl)cc4)c(=O)n3CC(=O)N3CC(C)(F)C3)c21 [Compound 1056]
b: CN(C)Cc1nc2cnc3c(cc(C(=O)NCc4ccc(Cl)cc4)c(=O)n3CC(=O)N3CC(C)(C)C3)c2n1C [Compound 1070]
// compare measured IC50, left a , right b , return larger Answer = label.
a

---

Molecular target: purified recombinant HCMV polymerase (UL54) (Human cytomegalovirus)
Construct: made in house; host or cells: Sf21 insect cells (baculovirus)
Assay: HCMV Polymerase LANCE TR-FRET Assay
Format: biochemical
Conditions: 2 nM GST-UL54, 37° C. for 30 min, 5% DMSO; read-out: Example 34 IC50
measuredAttribute: IC50 (nM)

Examples from the recorded data:
- chemicalSmiles: "Cc1nc2c3cc(C(=O)NCc4ccc(C#N)cc4)c(=O)n(CC(=O)N4CC(C)C4)c3ncc2n1C"
  outputUnit: "nM"
  IC50: 93
- chemicalSmiles: "COCc1nc2cnc3c(cc(C(=O)NCc4ccc(Cl)cc4)c(=O)n3CC(=O)N3CC(C)(F)C3)c2n1C"
  outputUnit: "nM"
  IC50: 58
- chemicalSmiles: "Cn1cc(-c2nc3cnc4c(cc(C(=O)NCc5ccc(Cl)cc5)c(=O)n4CC(=O)N4CC(C)(F)C4)c3n2C)cn1"
  outputUnit: "nM"
  IC50: 74

P: CC1(C)CN(C(=O)Cn2c(=O)c(C(=O)NCc3ccc(Cl)cc3)cc3c4c(cnc32)NC(C)(C)CO4)C1
Q: Cc1nc2cnc3c(cc(C(=O)NCc4ccc(Cl)cc4)c(=O)n3CC(=O)N(C)CC(C)(C)CO)c2n1C
R: Cn1c(N2CCCC2=O)nc2cnc3c(cc(C(=O)NCc4ccc(Cl)cc4)c(=O)n3CC(=O)N3CC(C)(F)C3)c21
S: Cc1nc2cnc3c(cc(C(=O)NCc4ccc(Cl)cc4)c(=O)n3CC(=O)N3CC4(C3)NCC4(F)F)c2n1C
Provide the items ranked by increasing IC50. Thanks in advance for listing the labels in the requested order.
Q, R, S, P

---

Molecular target: purified recombinant HCMV polymerase (UL54) (Human cytomegalovirus)
Construct: made in house; host or cells: Sf21 insect cells (baculovirus)
Experiment: HCMV Polymerase LANCE TR-FRET Assay
Assay type: biochemical
Conditions: 2 nM GST-UL54, 37° C. for 30 min, 5% DMSO; read-out: Example 34 IC50
measuredAttribute: IC50 (nM)

- compound: "Cc1nc2cnc3c(cc(C(=O)NCc4ccc(Cl)cc4)c(=O)n3CC(=O)N3CC(C)(F)C3)c2n1C [Compound 1002]"
  IC50 / nM: 38
- compound: "CCn1cnc2cnc3c(cc(C(=O)NCc4ccc(Cl)cc4)c(=O)n3CC(=O)N3CC(C)(F)C3)c21 [Compound 1004]"
  IC50 / nM: 26

a: CC1(F)CN(C(=O)Cn2c(=O)c(C(=O)NCc3ccc(Cl)cc3)cc3c4c(cnc32)ncn4CCO)C1 [Compound 1024]
b: Cn1c(-n2ccnc2)nc2cnc3c(cc(C(=O)NCc4ccc(Cl)cc4)c(=O)n3CC(=O)N3CC(C)(F)C3)c21 [Compound 1061]
// compare measured IC50, left a , right b , return larger Answer = label.
b
(b: 60 nM, a: 29 nM)
